- assay method text: Cytotoxicity against human FR2 cells assessed as cell viability at 10 uM after 48 hrs by MTT assay
- Type: cell-based
- test settings: read-out: Activity

compound	viability at 48 h, 10 µM
C[C@H]1[C@H](C)CC[C@]2(C)CC[C@]3(C)C(=CC[C@@H]4[C@@]5(C)CC[C@@H](O)[C@](C)(C(=O)O)[C@@H]5CC[C@]43C)[C@H]12 [BOSWELLIC ACID]	73%
CCCCCC(=O)O[C@H]1CC[C@@]2(C)[C@@H](CC[C@]3(C)[C@@H]2CC=C2[C@@H]4[C@@H](C)[C@H](C)CC[C@]4(C)CC[C@]23C)[C@@]1(C)C(=O)O	97%
CC(=O)O[C@@H]1CC[C@@]2(C)[C@@H](CC[C@]3(C)[C@@H]2C(=O)C=C2[C@@H]4[C@@H](C)[C@H](C)CC[C@]4(C)CC[C@]23C)[C@@]1(C)N=C=O	91%
CCCCCC(=O)O[C@H]1CC[C@@]2(C)[C@@H](CC[C@]3(C)[C@@H]2C(=O)C=C2[C@@H]4[C@@H](C)[C@H](C)CC[C@]4(C)CC[C@]23C)[C@@]1(C)C(=O)O	85%
CCCC(=O)O[C@H]1CC[C@@]2(C)[C@@H](CC[C@]3(C)[C@@H]2CC=C2[C@@H]4[C@@H](C)[C@H](C)CC[C@]4(C)CC[C@]23C)[C@@]1(C)C(=O)O	83%

====

- assay method text: Cytotoxicity against human FR2 cells assessed as cell viability at 10 uM after 48 hrs by MTT assay
- Format: cell-based
- test settings: read-out: Activity
endpoint name: viability at 48 h, 10 µM (%)

compound	unit	experimental value
CC(=O)O[C@H]1CC[C@@]2(C)[C@@H](CC[C@]3(C)[C@@H]2CC=C2[C@@H]4[C@@H](C)[C@H](C)CC[C@]4(C)CC[C@]23C)[C@@]1(C)C(=O)O	%	99
CC(=O)O[C@@H]1CC[C@]2(C)[C@H]3CC=C4[C@@H]5[C@@H](C)[C@H](C)CC[C@]5(C)CC[C@@]4(C)[C@]3(C)CC[C@H]2[C@@]1(C)N	%	100
C[C@H]1[C@H](C)CC[C@]2(C)CC[C@]3(C)C(=CC(=O)[C@@H]4[C@@]5(C)CC[C@@H](O)[C@](C)(C(=O)O)[C@@H]5CC[C@]43C)[C@H]12 [11-KETO BOSWELLIC ACID]	%	86
CCCCCC(=O)O[C@@H]1CC[C@@]2(C)[C@@H](CC[C@]3(C)[C@@H]2CC=C2[C@@H]4[C@@H](C)[C@H](C)CC[C@]4(C)CC[C@]23C)[C@@]1(C)C(=O)O	%	89
CCCC(=O)O[C@H]1CC[C@@]2(C)[C@@H](CC[C@]3(C)[C@@H]2C(=O)C=C2[C@@H]4[C@@H](C)[C@H](C)CC[C@]4(C)CC[C@]23C)[C@@]1(C)C(=O)O	%	80
